Sourced from the SangsterLogP compilation

- EXPERIMENT DESCRIPTION: method code SF, from PMID: 8453740
Friendly reminder: logP below 3 is 1, at or above is 0.

Item CCCCN(C)C(=O)c1cccc(Oc2ccccc2)c1 : logP beneath 3, strictly?
0

Then Cc1ccc(C)c(Oc2cccc(C(=O)NC(C)(C)C)c2)c1 ?
0

Then CN(C)C=C1OC(=O)C(C#N)=C1c1ccccc1 ?
1

Then CCCCCCOc1cccc(-c2cn(C)cc(-c3ccccc3)c2=O)c1 ?
0

Then CN(C)C(=O)c1cccc(Oc2ccccc2)c1 ?
1

Then CCCN(C)C(=O)c1cccc(Oc2ccccc2)c1 ?
0

Then CNC1=C(c2cccc(C(F)(F)F)c2)C(=O)C(c2ccccc2)O1 (stereo not given) ?
0

Then CCCCCN(C)C(=O)c1cccc(Oc2ccccc2)c1 ?
0

Then CCCCCOc1cccc(-c2cn(C)cc(-c3ccccc3)c2=O)c1 ?
0

Then CNC(=O)c1cccc(Oc2ccccc2)c1 ?
1

Then Cc1ccc(C)c(Oc2cccc(C(=O)NC(C)C)c2)c1 ?
0

Then CNC(=O)c1cccc(Oc2cc(C)ccc2C)c1 ?
0

Then COc1cccc(-c2cn(C)cc(-c3ccccc3)c2=O)c1 ?
1

---

QUANTITY: logP
Returns: the value as a bare number; no unit string appended.

What value of logP has been reported for the following compound? CCCCCCOc1cccc(-c2cn(C)cc(-c3ccc(Cl)cc3)c2=O)c1
5.23

Then CCCCCCN(C)C(=O)c1cccc(Oc2ccccc2)c1 ?
5.01
